Source: ChEMBL document CHEMBL1201862

# System: M14
# TEST_NAME: NCI tumour cell line growth inhibition, 48 h
The source made the active and inactive calls. Rule as the data show it: active = GI50 up to about 1.1 µM and inactive = higher.
MEASURE_NAME: GI50

{"columns": ["SMILES_RECORD", "REPORTED_RESULT"],
 "data": [
  ["Cc1ccc(Nc2nnc3n2S(=O)(=O)c2cc(C)c(Cl)cc2S3)cc1", "7.14 µM (inactive)"],
  ["N#Cc1ccccc1/C=N/O", "> 100 µM (inactive)"],
  ["Clc1ccc(/C(=C/c2ccccc2)Cn2ccnc2)cc1", "21.9 µM (inactive)"]
]}

* * *

# System: EKVX
# TEST_NAME: NCI tumour cell line growth inhibition, 48 h
Calls of active or inactive are those of the source. Rule as the data show it: active = GI50 up to about 1.1 µM and inactive = higher.
Classes used: active, inactive

{"columns": ["COMPOUND", "TARGET_SYSTEM", "CLASS_LABEL"],
 "data": [
  ["CC[C@@]1(O)C[C@H](OC2CC(N(C)C)C(O)C(C)O2)c2c(cc3c(c2O)C(=O)c2c(O)ccc(O)c2C3=O)[C@H]1C(=O)OC (stereo not given in full)", "EKVX", "active"],
  ["CCCCCCCCCCCCCCCC(=O)OCC1OC(n2cc(F)c(=O)[nH]c2=O)C(N)C(O)C1O (stereo not given)", "EKVX", "inactive"],
  ["Cc1cn2c(/C=C3/C(=O)Nc4ccccc43)c(-c3ccccc3)nc2s1", "EKVX", "inactive"],
  ["O=C(Nc1ccc(Cl)cc1)C(=O)C(C(=O)c1ccccc1-c1ccccc1)C1OC(=O)c2ccccc21 (stereo not given)", "EKVX", "inactive"],
  ["CN(C)c1ccc(/C=C/c2ccnc3ccccc23)cc1N", "EKVX", "inactive"],
  ["O=C(O)c1cccc(SSc2cccc(C(=O)O)c2)c1", "EKVX", "inactive"],
  ["COc1ccc(NC2C(=O)C3(C)CCC2C3(C)C)cc1 (stereo not given)", "EKVX", "inactive"],
  ["N#C/C(=C\\c1ccc(O)c(O)c1)c1c(C#N)c(N)nn1-c1ccccc1", "EKVX", "inactive"],
  ["Cc1c(-c2nnc(-c3ccc(Cl)cc3)o2)c(=O)n(-c2ccccc2)n1C", "EKVX", "inactive"],
  ["N#Cc1c(-c2ccccc2)[nH]c2ccccc2c1=O", "EKVX", "inactive"]
]}

* * *

# Test system: UACC-62
# TEST_NAME: NCI tumour cell line growth inhibition, 48 h
Calls of active or inactive are those of the source. Cut-off read from the data, not from the text of the source: active = GI50 up to about 1.1 µM and inactive = higher.
Labels: TRUE for active, FALSE for inactive

{"columns": ["MOLECULE", "CLASS_LABEL"],
 "data": [
  ["COC(=O)[C@]12CCC(C)(C)C[C@H]1[C@H]1C(=O)C=C3[C@@]4(C)C=C(C#N)C(=O)C(C)(C)[C@@H]4CC[C@@]3(C)[C@]1(C)CC2", "TRUE"],
  ["Clc1ccc(/C(=C/c2ccccc2)Cn2ccnc2)cc1", "FALSE"],
  ["O=C(Nc1c(O)[nH]c(=S)[nH]c1=O)c1ccco1", "FALSE"],
  ["Nc1cccc2nnccc12", "FALSE"],
  ["OCC1OC(n2cnc3cccnc32)CC1O (stereo not given)", "FALSE"]
]}

* * *

# System: M14
# TEST_NAME: NCI tumour cell line growth inhibition, 48 h
Activity calls are given as the source filed them. Rule as the data show it: active = GI50 up to about 1.1 µM and inactive = higher.
Labels: 1.0 for active, 0.0 for inactive

{"columns": ["COMPOUND", "TARGET_SYSTEM", "CLASS_LABEL"],
 "data": [
  ["FC(F)(F)c1n[nH]c(SCc2ccc(Cl)cc2)n1", "M14", 0.0],
  ["O/N=C\\c1c2c(cc3c1CCC3)CCC2", "M14", 0.0],
  ["COC(=O)C(Cc1ccc2c(c1)CCCC2)Cc1cc2c(cc1C(O)OC)CCC2 (stereo not given)", "M14", 0.0],
  ["NC(=O)C1Cc2cc3c(cc21)OCO3 (stereo not given)", "M14", 0.0],
  ["CCN1C[C@]2(C)CC[C@H](O)C34C1C(C[C@@H]32)[C@@]1(O)CC[C@H]2C[C@@H]4[C@@H]1[C@H]2O", "M14", 0.0],
  ["O=C(OCc1ccccc1C1CSCSC1)c1cc(C(=O)OCc2ccccc2C2CSCSC2)c(C(=O)OCc2ccccc2C2CSCSC2)cc1C(=O)OCc1ccccc1C1CSCSC1", "M14", 0.0],
  ["OC1(c2ccc(Cl)cc2)c2ccccc2C2=NCc3ccccc3CN21 (stereo not given)", "M14", 0.0],
  ["CC(=O)OC[C@H]1[C@@H]2C(CC[C@]13CO3)OC(=O)CC(C)[C@]2(C)CCc1ccoc1 (stereo not given in full)", "M14", 0.0],
  ["OCC1CCCCCCCCCCC12SCCCS2 (stereo not given)", "M14", 0.0],
  ["NC(=O)NC(=O)c1cccc(NC(=O)CBr)c1", "M14", 1.0]
]}

* * *

# Tested on: NCI-H522
# TEST_NAME: NCI tumour cell line growth inhibition, 48 h
The source made the active and inactive calls. Cut-off read from the data, not from the text of the source: active = GI50 up to about 1.1 µM and inactive = higher.
Overview of recorded GI50 for various compounds
MEASURE_NAME: GI50

{"columns": ["COMPOUND", "REPORTED_RESULT"],
 "data": [
  ["[O-][Cl+3]([O-])([O-])[O-].c1ccc(C[P+]2(c3ccccc3)CCCCC2)cc1", "34.5 µM (inactive)"],
  ["CC1=NN(c2nc(N)nc(/C(C#N)=C\\c3ccc([N+](=O)[O-])s3)n2)C(C)(C)C1", "0.101 µM (active)"],
  ["CC(=O)OC1C[C@@H](C)C2(CC(c3ccoc3)OC2=O)C2CCC(O)C3(CO3)C12CO (some centres undefined)", "> 100 µM (inactive)"],
  ["CCCCCCCCCCCCCCCC(=O)OCC1OC(n2cc(F)c(=O)[nH]c2=O)C(N)C(O)C1O (centres undefined)", "17.8 µM (inactive)"],
  ["Cc1nnc([C@@]2(C)CC[C@H]3[C@@H](CC=C4C[C@@H](O)CC[C@@]43C)[C@@H]2CC#N)o1", "22.5 µM (inactive)"],
  ["CNC(=O)N1CN(c2ccccc2)C2(CCN(CCCC3(c4ccc(F)cc4)OCCO3)CC2)C1=O", "> 100 µM (inactive)"],
  ["CCCCCC/C=C\\CCCCCCCCCC1=C(CN2CCN(C)CC2)C(=O)C=C(OC)C1=O", "1.55 µM (inactive)"],
  ["OCC1OC(n2cnc3cccnc32)CC1O (centres undefined)", "> 100 µM (inactive)"],
  ["CCOC(=O)c1nnsc1NC(=O)NN", "> 100 µM (inactive)"]
]}

* * *

# Test system: NCI-H226
# TEST_NAME: NCI tumour cell line growth inhibition, 48 h
Active and inactive are the calls of the source. Cut-off read from the data, not from the text of the source: active = GI50 up to about 1.1 µM and inactive = higher.

{"columns": ["COMPOUND", "TARGET_SYSTEM", "GI50"],
 "data": [
  ["Nc1ncnc2c1ncc(=O)n2C1CC(O)C(CO)O1 (stereo unspecified)", "NCI-H226", "> 100 µM (inactive)"],
  ["OC1CCSc2ccccc21 (stereo unspecified)", "NCI-H226", "> 100 µM (inactive)"],
  ["ClC(Cl)(Cl)C1=N[C@H]2[C@H](Br)[C@@H]3O[C@@H](c4ccccc4)[C@H](c4ccccc4)O[C@@H]3[C@H]2O1", "NCI-H226", "19.8 µM (inactive)"],
  ["Cc1c(C#N)c2nnn(-c3cccc(Cl)c3)c(=O)n2c1-c1ccccc1", "NCI-H226", "2.25 µM (inactive)"],
  ["CC(C)Cn1cnc2c(Cl)nc3ccccc3c21", "NCI-H226", "40 µM (inactive)"],
  ["Nc1cc(N2CCCC2)nc(=O)n1Cc1ccccc1", "NCI-H226", "> 100 µM (inactive)"]
]}

* * *

# Tested on: SK-MEL-28
# TEST_NAME: NCI tumour cell line growth inhibition, 48 h
Active and inactive are the calls of the source. Cut-off read from the data, not from the text of the source: active = GI50 up to about 1.1 µM and inactive = higher.
Outcomes: active, inactive

{"columns": ["MOLECULE", "CLASS_LABEL"],
 "data": [
  ["COc1ccc(N[S+]([O-])c2c(C)cc(C)cc2C)cc1 (stereo unspecified)", "inactive"],
  ["C(/Cc1ccc2c(c1)OCO2)=N\\N=C1NCCCN1", "inactive"],
  ["O=C(NNC(=O)c1ccco1)c1ccco1", "inactive"],
  ["O=C1/C(=C\\c2cccc(Oc3ccccc3)c2)SC(c2ccccc2)N1Cc1ccccc1 (stereo unspecified)", "inactive"],
  ["O=S(=O)(c1ccccc1)C1CC(c2nc3ccccc3[nH]2)=NO1 (stereo unspecified)", "inactive"],
  ["N#Cc1ccccc1/C=N/O", "inactive"],
  ["CCOC(=O)c1cc2cc([N+](=O)[O-])ccc2oc1=O", "inactive"],
  ["COc1cc2c(cc1OC)C(Cc1cc(Br)c(OC)c(OC)c1)=[N+](C)CC2", "inactive"],
  ["Cc1cc(C)nc(NS(=O)(=O)c2ccc(Nc3c4ccccc4nc4c(C(=O)NCCCN(CCO)CCO)cccc34)cc2)n1", "inactive"],
  ["COc1ccc(C[C@H]2NC[C@H](OC(C)=O)[C@H]2OC(C)=O)cc1", "active"],
  ["COC1=C[C@]2(CCC(=O)O2)[C@@H]2Cc3ccccc3[C@H](O)[C@@H]2C1=O", "inactive"]
]}
